Entries annotated with measured Na
Species: Rattus norvegicus
Test: Open TG-GATES - Regimen: Daily Repeat
Type: toxicity, organism-based, Sprague-Dawley
Set-up: regimen Daily Repeat, gender Male, age 6 weeks
Conditions: in vivo, po, 300 mg/kg, […], tissue Plasma, route gavage, dose level Middle, time 28 day

compound	unit-text	Na
O=C(O)c1cccnc1	meq/L	143
O=C(N[C@H](CO)[C@H](O)c1ccc([N+](=O)[O-])cc1)C(Cl)Cl	meq/L	144.6
CC(C)(S)[C@@H](N)C(=O)O	meq/L	144
CCN1CCCC1CNC(=O)c1cc(S(N)(=O)=O)ccc1OC (centres undefined) [SULPIRIDE]	meq/L	142

----------
Species on record: Rattus norvegicus
Experiment: Open TG-GATES - Regimen: Daily Repeat
Type: toxicity, organism-based, Sprague-Dawley
Set-up: regimen Daily Repeat, gender Male, age 6 weeks
Details: in vivo, po, 0 mg/kg, […], tissue Plasma, route gavage, dose level Control, time 7 day
measurement-label: log10 of DBIL (log10 of the value in mg/dL)

molecule	log10 of DBIL
CC(=N)S [THIOACETAMIDE]	-1.80
CCN1CCCC1CNC(=O)c1cc(S(N)(=O)=O)ccc1OC (stereo not given) [SULPIRIDE]	-1.80
CC(C)C(=O)Nc1ccc([N+](=O)[O-])c(C(F)(F)F)c1 [FLUTAMIDE]	-1.05
CCc1oc2ccccc2c1C(=O)c1cc(I)c(O)c(I)c1 [BENZIODARONE]	-1.32
C[C@]12CCC(=O)C=C1CC[C@@H]1[C@@H]2CC[C@@]2(C)[C@H]1CC[C@]2(C)O [METHYLTESTOSTERONE]	-1.74
Nc1nc(N)c2nc(-c3ccccc3)c(N)nc2n1	-1.85
O=C(N[C@H](CO)[C@H](O)c1ccc([N+](=O)[O-])cc1)C(Cl)Cl [CHLORAMPHENICOL]	-1.62
CCSCC[C@H](N)C(=O)O [ETHIONINE]	-1.04
C[C@](N)(Cc1ccc(O)c(O)c1)C(=O)O [METHYLDOPA]	-2.10
CN1C(=O)OC(C)(C)C1=O [TRIMETHADIONE]	-2.00

----------
Organism: Rattus norvegicus
Experiment: Open TG-GATES - Regimen: Daily Repeat
Type: toxicity, organism-based, Sprague-Dawley
Parameters: regimen Daily Repeat, gender Male, age 6 weeks
Conditions: in vivo, po, 0 mg/kg, […], tissue Blood, route gavage, dose level Control, time 28 day
# Lym annotations

compound	Lym / %
CC(=N)S [THIOACETAMIDE]	86.2
O=C(N[C@H](CO)[C@H](O)c1ccc([N+](=O)[O-])cc1)C(Cl)Cl [CHLORAMPHENICOL]	77.4
Nc1nc(N)c2nc(-c3ccccc3)c(N)nc2n1	82.6
CN1C(=O)OC(C)(C)C1=O [TRIMETHADIONE]	78.4
C[C@]12CCC(=O)C=C1CC[C@@H]1[C@@H]2CC[C@@]2(C)[C@H]1CC[C@]2(C)O [METHYLTESTOSTERONE]	78.2

----------
Species on record: Rattus norvegicus
Assay: Open TG-GATES - Regimen: Daily Repeat
Assay type: toxicity, organism-based, Sprague-Dawley
Set-up: regimen Daily Repeat, gender Male, age 6 weeks
Details: in vivo, po, 300 mg/kg, 72 h, tissue Plasma, route gavage, dose level Middle, time 3 day

compound	DBIL [mg/dL]
CC(C)(S)[C@@H](N)C(=O)O [PENICILLAMINE]	0.012
CCN1CCCC1CNC(=O)c1cc(S(N)(=O)=O)ccc1OC (centres undefined) [SULPIRIDE]	0.01
O=C(O)c1cccnc1 [NIACIN]	0
O=C(N[C@H](CO)[C@H](O)c1ccc([N+](=O)[O-])cc1)C(Cl)Cl [CHLORAMPHENICOL]	0.01
